target: mTOR/GbL/Raptor (mTORC1) (Homo sapiens, UniProt P42345); assay: mTOR/GbL/Raptor (mTORC1) ELISA assay; details: phosphorylation of 4E-BP1; 0.2 nM mTORC1, 10 μM ATP; read-out: IC50 in this assay (mTORC1 ELISA)
pIC50: −log10 of the molar value.
readout.type: pIC50

compound	pIC50
COC(=O)Nc1nc2ccc(-c3ccc4c(c3)CN(c3nc(C)nc5ccccc35)CCO4)cc2[nH]1 [Example 108]	6.00 to 6.60
CC(C)(CN)CNS(=O)(=O)c1cc(-c2ccc3c(c2)CN(c2ncnc4c2CC(C)(C)CC4)CCO3)cnc1N [Example 411]	7.30 to 8.00
CCNc1nc2ccc(-c3ccc4c(c3)CN(c3nc(C)nc5cc(OC)c(OC)cc35)CCO4)cc2[nH]1 [Example 271]	6.00 to 6.60

Name the recorded pIC50 for CCNc1nc2ncc(-c3ccc4c(c3)CN(c3ccncn3)CCO4)cc2[nH]1 [Example 230] .
6.60 to 7.30

How about this compound: COc1ccc(-c2ccc3c(c2)CN(c2nc(CN(C)C)nc4c2CC(C)(C)CC4)CCO3)cn1 [Example 330]
6.00 to 6.60

How about this compound: Cc1nc2cc(-c3ccc4c(c3)CN(c3nc(CN(C)C)nc(C)c3Br)CCO4)ccc2[nH]1 [Example 666]
≤ 5.70

How about this compound: Cc1nc2ccc(-c3ccc4c(c3)CN(c3nc(CNC5CC5)nc5c3CC(C)(C)CC5)CCO4)cc2[nH]1 [Example 588]
7.30 to 8.00

How about this compound: Cc1cc(N2CCOc3ccc(-c4ccc5[nH]cnc5c4)cc3C2)nc(N)n1 [Example 688]
6.00 to 6.60

How about this compound: Cc1nc2ccc(-c3ccc4c(c3)CN(c3ccnc(C)c3Cc3ccc(F)cc3)CCO4)cc2[nH]1 [Example 102]
≥ 8.00

How about this compound: CN(C)Cc1nc2ncc(-c3ccc4c(c3)CN(c3ncnc5c3CC(C)(C)CC5)CCO4)cc2[nH]1 [Example 357]
6.00 to 6.60
